The values you see were collected from PubChem BioAssay (Tox21).

- assay_protocol: qHTS assay to test for compound auto fluorescence at 535 nm (green) in HepG2 cell free culture (AID 720686); note: % is set by controls: 0 for no effect and ±100 for the full control effect
- applied_conditions: Cell-free medium, green autofluorescence 485/535 nm; series mostly up to 91.3 µM
The source made the active and inactive calls. Calls come from the whole dose curve; as a rule, active = well fitted curve in the direction sought with a large enough effect in the repeat runs; inconclusive = weak or mixed curves; inactive = flat fitted curve, though single readings scatter.
property_label: fluorescence, % of fluorescein control

1) Cc1ccc(C(=O)Nc2ccc(S(=O)(=O)O)c3cc(S(=O)(=O)O)cc(S(=O)(=O)O)c23)cc1NC(=O)c1cccc(NC(=O)Nc2cccc(C(=O)Nc3cc(C(=O)Nc4ccc(S(=O)(=O)O)c5cc(S(=O)(=O)O)cc(S(=O)(=O)O)c45)ccc3C)c2)c1; inactive
2) COc1cccc(OC)c1C(=O)N[C@@H]1C(=O)N2[C@@H]1SC(C)(C)[C@@H]2C(=O)O; inactive
3) CCOCC(C)O (stereo not given); inactive
4) c1ccc(CCc2ccccc2)cc1; inactive
5) [K+]; inactive
6) O=C(CO)[C@@H](O)[C@H](O)[C@@H](O)CO; inactive
7) Cc1c(N)c(=O)n(-c2ccccc2)n1C; -0.0689% [at 18.6 µM] (inactive)
8) CC(C)NNC(=O)c1ccncc1; inactive
9) C[N+]1(CC2COC(c3ccccc3)(c3ccccc3)O2)CCCCC1 (stereo not given); inactive
10) Cc1cc(C)c(N=Nc2c(O)c(S(=O)(=O)O)cc3cc(S(=O)(=O)O)ccc23)cc1C; -0.0747% [at 9.17 µM] (inactive)
11) CC(=O)Oc1cccc(C)c1; inactive
12) C1CCC2(CCCCO2)OC1; inactive
13) CCNS(=O)(=O)c1ccc(C)cc1; inactive
14) C[N+]12CCC(CC1)C(OC(=O)C(O)(c1ccccc1)c1ccccc1)C2 (stereo not given); -0.0194% [at 18.6 µM] (inactive)
15) CCC(=O)OCc1ccccc1; inactive
16) CCOC(=O)COc1cc(-n2ncc(C(F)(F)F)c(C)c2=O)c(F)cc1Cl; inactive
17) CC(C)=CCC/C(C)=C/C#N; inactive
18) C[N+]1(C)[C@@H]2CC(OC(=O)[C@H](CO)c3ccccc3)C[C@H]1[C@@H]1O[C@@H]12 (stereo not given in full); inactive
19) CC1=C(C/C=C(\C)CCC[C@H](C)CCC[C@H](C)CCCC(C)C)C(=O)c2ccccc2C1=O; inactive
20) OCCCCCO; inactive
21) CCCCCCCCCCCCCCC(=O)O; inactive
22) C=CCOCC(O)CO (stereo not given); inactive
23) CCOC(=O)C1=NOC(c2ccccc2)(c2ccccc2)C1; inactive
24) CC(C(=O)O)c1cccc(Oc2ccccc2)c1 (stereo not given); 0.0607% [at 18.6 µM] (inactive)
25) O=Cc1cccc(Br)c1; inactive
